system: SNB-19 CNS; experiment: NCI-60 one-dose screen, 48 h (100 = growth as untreated, 0 = no growth, -100 = all killed); conditions: 10 µM unless noted
This is part of a sample that, as a whole, favours compounds with a hit. Of some 83,000 tested, about 20% had one in any assay.
Here, each record is paired with measured growth data.
Write the number in % without appending the unit.

Worked cases, answers included:
CN1CCN(Cn2nc(-c3cc(Cl)cc(Cl)c3Cl)n(/N=C/c3ccc(Cl)cc3)c2=S)CC1 ... 96.6
COc1ccccc1S(=O)(=O)Nc1ccc2c3c(cc(-c4cnn(C)c4)nc13)C(=O)N2C ... 50
COc1cc(C(=O)N2CCN(C(=O)c3cc(OC)c(OCc4ccccc4)cc3N)CC2)c(N)cc1OCc1ccccc1 ... 108
c1ccc(CNCCN(CCNCc2ccccn2)Cc2ccc3ccccc3c2)nc1 ... 18.3
CC(C)C(=O)Nc1nc2c(s1)CCCc1ccn(S(=O)(=O)c3ccccc3)c1-2 ... 110
COC(=O)c1ccc2c(c1)Oc1ccc(Cl)cc1-c1cc(C)nn1-2 ... 68.8
Cc1nc(-c2ccc(Cl)cc2)ccc1NC(=O)Nc1cccc(C(F)(F)F)c1 ... 108
O=C(O)c1cccc(S(=O)(=O)c2ccccc2)c1 ... 110

From here, focus on the item given below.
Look up growth for this molecule: Cc1ccc2nc(-c3ccc(-n4on4-c4ccc(/C=C/c5ccc(-n6on6-c6ccc(-c7nc8ccc(C)cc8s7)cc6)cc5S(=O)(=O)O)c(S(=O)(=O)O)c4)cc3)sc2c1 117

====

Here, each record is paired with measured growth data.
tested on: MDA-MB-231 breast; assay: NCI-60 one-dose screen, 48 h (100 = growth as untreated, 0 = no growth, -100 = all killed); settings: 10 µM unless noted
Compounds without any hit were thinned out: in the full panel of roughly 83,000, 20% have a hit.
Write the number in % without appending the unit.

Worked cases, answers included:
Cc1nccc2c3ccc(OCc4cn(-c5ccc(Br)cc5)nn4)cc3n(CCCc3ccccc3)c12 ... -1.95
CCn1cc(C(=O)O)c(=O)c2cc(F)c(N3CCN(CC(=O)Nc4ccc(C(C)=O)cc4)CC3)cc21 ... 100
Fc1ccc(/C=N/n2c(-c3cc(Cl)cc(Cl)c3Cl)nn(CNc3ccc(Cl)nn3)c2=S)cc1 ... 83.3
COc1ccc(C2CC(c3cc(Cl)c(C)cc3OC)=NN2c2ccc(S(N)(=O)=O)cc2)cc1OC (stereo not drawn) ... 84.6
CCn1c(SCC(=O)c2ccc(Br)cc2)nnc1-c1cc2c([nH]c3ccccc32)c(-c2cccc(O)c2)n1 ... 75.4

Look up growth for this compound: O=C(NCCNc1nccc(-c2c(-c3cccc(O)c3)nc3sccn23)n1)Nc1cc(C(F)(F)F)cc(C(F)(F)F)c1 41.4

Look up growth for this compound: COc1cccc(/C=N/C(=S)NC2(C)C3CCC(C3)C2(C)C)c1O (stereo not drawn) 96.2

Look up growth for this compound: C=C1C(=O)O[C@H]2[C@H]1CC/C(COC(=O)c1ccc(Cl)nc1)=C\CC[C@@]1(C)O[C@@H]21 -2.63

====

test system: NCI-H23 lung; experiment: NCI-60 one-dose screen, 48 h; details: 10 µM unless noted
About 83,000 compounds went through this panel and 20% of them were active in at least one assay; those are over-represented in the sample as a whole. The source made the active and inactive calls. The calls were made as follows: active = growth percent below 10; inactive = the rest.
One label from this list, please: true (1) (active), false (0) (inactive)

COc1ccc(-c2nnc(SCC(=O)Nc3ccc(C(=O)/C=C/c4ccc(Cl)cc4)cc3)o2)cc1OC ... false (0)

Consider now this further compound.
Could you check what this test reported for COc1cc2ncnc(Oc3ccc(NC(=O)Nc4ccc(CN5CCOCC5)c(C(F)(F)F)c4)c4ccccc34)c2cc1OC ? false (0)

====

system: UACC-257 melanoma; assay: NCI-60 one-dose screen, 48 h (100 = growth as untreated, 0 = no growth, -100 = all killed); conditions: 10 µM unless noted
About 83,000 compounds went through this panel and 20% of them were active in at least one assay; those are over-represented in the sample as a whole.
Here, each record is paired with measured growth data.
Write the number in % without appending the unit.

CC(C)C1(C(C)C)NC(=O)NC1=O ... 106
c1ccc(CNCCN(CCNCc2ccccn2)Cc2ccc3ccccc3c2)nc1 ... 31.7
Nc1nccc2c1ccn2-c1ccc(NC(=O)Nc2cccc(C(F)(F)F)c2)cc1 ... 113
CSc1ccc(C(=O)C[n+]2cccc(C)c2)cc1 ... 98.2
COc1ccc(Cl)cc1NC(=O)c1cc2c([nH]1)-c1nc(N)sc1CCC2 ... 91
Cc1nc(-c2ccc(Cl)cc2)ccc1NC(=O)Nc1cccc(C(F)(F)F)c1 ... 98.9
CC(/C=C/C=C(\C)[C@H](O)[C@H](C)C(=O)O[C@H]1C[C@H](C)C=C2C=C[C@@]3(C)O[C@@H](O)CC(=O)[C@]3(C)[C@H]21)=C\C=C\C(=O)O ... 2.06
Cc1nccc2c3ccc(OCc4cn(Cc5ccc(Br)cc5)nn4)cc3n(CCCc3ccccc3)c12 ... 99.3

From here, focus on the item given below.
So what growth did CN(C)CCS(=O)(=O)Nc1cc(-c2ccc3ncnc(Nc4ccc(F)c(Cl)c4)c3c2)cnc1Cl get with UACC-257 melanoma? -0.224

====

tested on: SF-268 CNS; test: NCI-60 one-dose screen, 48 h; details: 10 µM unless noted
About 83,000 compounds went through this panel and 20% of them were active in at least one assay; those are over-represented in the sample as a whole. Active and inactive are the calls of the source. How the source made its calls: active means growth percent below 10; inactive means the rest.
One label from this list, please: 1.0 (active), 0.0 (inactive)

Could you check what this test reported for C=C1C(=O)O[C@H]2[C@H]1CC/C(C(=O)Nc1ccc(OC)c(C(N)=O)c1O)=C\CC[C@@]1(C)O[C@@H]21 ? 0.0

====

tested on: NCI/ADR-RES ovarian; experiment: NCI-60 one-dose screen, 48 h (100 = growth as untreated, 0 = no growth, -100 = all killed); settings: 10 µM unless noted
This is part of a sample that, as a whole, favours compounds with a hit. Of some 83,000 tested, about 20% had one in any assay.
Here, each record is paired with measured growth data.
Write the number in % without appending the unit.

Cc1cc(O[C@@H]2O[C@@H](C)[C@H](O)[C@@H](O)[C@H]2O)c2c3c(c(O[C@@H]4O[C@@H](C)[C@H](O)[C@@H](O)[C@H]4O)cc2c1)C(=O)c1c(O)cccc1C3=O ... 36.4
CCC1CN2C(=N1)c1ccccc1-c1cc(Cl)ccc12 (centres undefined) ... 21.3
COc1ccc(C(=O)NC(=O)Nc2ccc3c(c2)NC(=O)/C3=C\c2[nH]c(C)c(C(=O)O)c2C)cc1 ... 99.1
COc1ccc(C(=O)NC(=O)Nc2ccc3c(c2)NC(=O)/C3=C\c2[nH]c(C)c(CCC(=O)O)c2C)c(F)c1 ... 88.7
CN1CCN(Cn2nc(-c3cc(Cl)cc(Cl)c3Cl)n(/N=C/c3ccc(Cl)cc3)c2=S)CC1 ... 96.6
CN1C(=O)C2(NN=C(c3cccc4ccccc34)S2)c2ccccc21 (centres undefined) ... 29
COc1cc(C(=O)C[n+]2ccccc2)ccc1OC(C)=O ... 111
Cc1c(F)cccc1NC(=O)c1sc2nc3c(cc2c1N)CCCCC3 ... 43.9

From here, focus on the item given below.
Look up growth for this molecule: COc1cc(-c2nc(N)n(CC(=O)Nc3ccc(/C(C)=N\O)cc3)n2)cc(OC)c1OC 105

====

test system: SK-MEL-2 melanoma; test: NCI-60 one-dose screen, 48 h; conditions: 10 µM unless noted
Compounds without any hit were thinned out: in the full panel of roughly 83,000, 20% have a hit. Activity calls are given as the source filed them. The calls were made as follows: active = growth percent below 10; inactive = the rest.
One label from this list, please: YES = active, NO = inactive

Could you check what this test reported for Cn1cnc([N+](=O)[O-])c1N1c2ccncc2Sc2ccncc21 ? NO

====

tested on: IGROV1 ovarian; test: NCI-60 one-dose screen, 48 h (100 = growth as untreated, 0 = no growth, -100 = all killed); conditions: 10 µM unless noted
The panel holds about 83,000 compounds, 20% with a hit somewhere; the sample as a whole holds those more often. The source made the active and inactive calls. Rule for the calls: active = growth percent below 10; inactive = the rest.
METRIC NAME: growth

CC(CN(C)C)CN1c2ccccc2CCc2ccccc21 (stereo not given) ... 62% (inactive)
O=C1c2ccccc2OC=C(c2ccccc2)N1CCCCNc1ccc(F)cc1 ... 81.9% (inactive)
C=C(C)[C@@H]1C/C=C(\COC(=O)[C@H](OC(C)=O)C(NC(=O)c2ccccc2)c2ccccc2)CC[C@H]2O[C@]2(C)CC/C=C(\C)CC1 (stereo not given in full) ... 45.9% [5 µM] (inactive)
COc1ccc(-c2nn(-c3ccc(NC(=O)Nc4ccc(Cl)c(Cl)c4)cc3)cc2-c2ccncc2)cc1Cl ... 36.6% (inactive)
N#CC(C#N)=C(C#N)c1c[nH]c2ccccc12 ... 75.2% (inactive)

Look up growth for this molecule: COc1cc(Br)c(-c2nc(-c3ccccc3)c(-c3ccccc3)n2Cc2ccccc2)cc1OC 49.4% (inactive)

Look up growth for this molecule: NN=C(c1ccc(Cl)cc1)c1ccc(Cl)cc1 119% (inactive)
